Experiment: Quantitative High-Throughput drug screen in 47 multiple myeloma cell lines against the NCATS MIPE library collection: KMM1_JCRB cell viability assay (AID 1918960); further: nearly all actives have a fitted effect of over 30% in size; further: potency means the concentration at half of the fitted maximal effect
Settings: KMM1 myeloma viability, CellTiter-Glo ATP luminescence, 48 h; series mostly up to 45.8 µM
From the text: PI: Beverly A. Mock Ph.D. Laboratory of Cancer Biology and Genetics, Center for Cancer Research, National Cancer Institute, National Institute of Health, Bethesda, Maryland […] 5; Detector; 425V; Luminescence; Viewlux PerkinElmer. […] 1. […] Briefly, the corresponding myeloma cell lines were screened in 1,536-well plates with 500 cells, 5-uL per well for inhibition of cell viability (assessed by measuring ATP levels with CellTiterGlo). […]
Inconclusive results are not listed. Calls of active or inactive are those of the source. The call rests on the fitted dose curve; in most records, active means well fitted cell-killing curve with a large enough effect; inconclusive means small, poorly fitted or top-dose-only effect, or effect the other way; inactive means no such curve, though single readings can be large or run the other way.
PARAMETER: Potency

Reference set, count: 5
COMPOUND: CCC(C)SSc1ncc[nH]1 (configuration not stated)
Potency: 3.32 µM (active)

COMPOUND: CN[C@H]1[C@@H](O[C@@H]2[C@H](O[C@@H]3[C@@H](O)[C@@H](O)[C@@H](N=C(N)N)[C@@H](O)[C@@H]3N=C(N)N)O[C@H](C)[C@@]2(O)C=O)O[C@@H](CO)[C@@H](O)[C@H]1O
Potency: inactive

COMPOUND: CC[C@H](C)C(=O)O[C@H]1C[C@H](O)C=C2C=C[C@H](C)[C@H](CC[C@@H](O)C[C@@H](O)CC(=O)O)[C@H]21
Potency: inactive

COMPOUND: Fc1ccc(C(c2ccc(F)cc2)N2CCN(CC=Cc3ccccc3)CC2)cc1
Potency: inactive

COMPOUND: Nc1ccn([C@@H]2O[C@H](CO)[C@@H](O)[C@H]2O)c(=O)n1
Potency: inactive

Challenge: Query (compound): CC(=O)OCC(=O)[C@@]1(O)CC[C@H]2[C@@H]3CCC4=CC(=O)C=C[C@]4(C)[C@@H]3[C@@H](O)C[C@@]21C ; field requested: Potency
Response given: inactive

Challenge: Query (compound): OC[C@H]1O[C@@H](Oc2ccc(O)cc2)[C@H](O)[C@@H](O)[C@H]1O ; field requested: Potency
Response given: inactive

Challenge: Query (compound): CN1[C@H]2CC[C@H]1CC(OC(=O)c1c[nH]c3ccccc13)C2 (some centres not stated) ; field requested: Potency
Response given: inactive

Challenge: Query (compound): COc1ccc(C=CC(=O)Nc2ccccc2C(=O)O)cc1OC ; field requested: Potency
Response given: inactive

Where these numbers come from: PubChem BioAssay (NCATS)
